Where these numbers come from: ChEMBL document CHEMBL5357076

experiment: Inhibition of Cyanidioschyzon merolae ABCB1 ATPase activity assessed as inhibition constant by colorimetric analysis
Examples of molecules with documented pKi follow.
Remember the convention: pKi equals -log10 of concentration in molar.

Previously resolved entries follow.
O=C(OCc1ccccc1)c1ccccc1C1=c2cc3c(cc2Oc2cc4c(cc21)CCCN4)=NCCC3 | 5.05
O=C(OCc1cccc(C(F)(F)F)c1)c1ccccc1C1=c2cc3c(cc2Oc2cc4c(cc21)CCCN4)=NCCC3 | 4.74
CCCCOC(=O)c1ccccc1C1=c2cc3c4c(c2Oc2c1cc1c5c2CCCN5CCC1)CCC[N+]=4CCC3 | 4.37
O=C(OCc1ccc2ccccc2c1)c1ccccc1C1=c2cc3c(cc2Oc2cc4c(cc21)CCCN4)=NCCC3 | 5.02
CCCCOC(=O)c1ccccc1-c1c2cc(C)c(=[N+]3CCCC3)cc-2oc2cc(N3CCCC3)c(C)cc12 | 3.96

IN: Give its pKi value. Item: Cc1cccc(COC(=O)c2ccccc2C2=c3cc4c(cc3Oc3cc5c(cc32)CCCN5)=NCCC4)c1
OUT: 5.08

IN: Give its pKi value. Item: COc1cc(COC(=O)c2ccccc2C2=c3cc4c(cc3Oc3cc5c(cc32)CCCN5)=NCCC4)cc(OC)c1
OUT: 4.51

IN: Give its pKi value. Item: CCCC/N=c1/cc2oc3cc(NCCCC)c(C)cc3c(-c3ccccc3C(=O)OCCCC)c-2cc1C
OUT: 3.80
